target: T1, cSNK:BSA conjugate (bovine, head-to-tail cyclized; conjugated to BSA carrier); test: BLI 2:1 fit, site 1; 50 nM row
T1 construct: also called BSA-cSNK
T1 sequence (P02769 25-607 limits assumed): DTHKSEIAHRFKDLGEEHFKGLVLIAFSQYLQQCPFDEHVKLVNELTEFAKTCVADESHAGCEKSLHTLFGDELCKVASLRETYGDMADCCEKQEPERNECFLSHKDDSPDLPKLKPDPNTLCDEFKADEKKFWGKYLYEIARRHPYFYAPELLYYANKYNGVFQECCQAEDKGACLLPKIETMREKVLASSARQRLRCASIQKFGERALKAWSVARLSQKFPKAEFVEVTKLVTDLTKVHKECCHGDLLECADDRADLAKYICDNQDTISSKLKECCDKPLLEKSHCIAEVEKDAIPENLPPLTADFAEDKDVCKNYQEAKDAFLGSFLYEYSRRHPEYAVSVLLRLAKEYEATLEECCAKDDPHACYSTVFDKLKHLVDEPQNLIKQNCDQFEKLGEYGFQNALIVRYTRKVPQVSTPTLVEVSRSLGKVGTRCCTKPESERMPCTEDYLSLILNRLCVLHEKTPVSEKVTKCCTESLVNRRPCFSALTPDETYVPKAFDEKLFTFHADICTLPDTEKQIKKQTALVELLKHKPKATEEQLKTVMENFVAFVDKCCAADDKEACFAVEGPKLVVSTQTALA
measurementType: koff (s⁻¹)
Numbers only; they are read as s⁻¹.

input: Dear colleague, I am looking for the recorded koff of the following binder: hu5E3-IgG1 (antibody, V domains shown, human IgG1/kappa; also called humanized 5E3 IgG1; IHA variant) VH: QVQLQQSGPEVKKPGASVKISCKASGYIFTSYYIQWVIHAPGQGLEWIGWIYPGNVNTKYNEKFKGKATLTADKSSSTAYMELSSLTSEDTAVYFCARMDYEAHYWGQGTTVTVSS VL: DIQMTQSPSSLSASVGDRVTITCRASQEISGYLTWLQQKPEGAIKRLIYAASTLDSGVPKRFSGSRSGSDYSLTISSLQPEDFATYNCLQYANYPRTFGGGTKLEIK
output: 0.000825

input: Another binder: rehu5E3-IgG4 (antibody, V domains shown, human IgG4/kappa; also called IgG4 rehu version) VH: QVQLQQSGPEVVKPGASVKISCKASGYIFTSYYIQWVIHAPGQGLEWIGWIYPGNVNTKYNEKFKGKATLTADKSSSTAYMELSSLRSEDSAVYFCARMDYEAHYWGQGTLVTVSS VL: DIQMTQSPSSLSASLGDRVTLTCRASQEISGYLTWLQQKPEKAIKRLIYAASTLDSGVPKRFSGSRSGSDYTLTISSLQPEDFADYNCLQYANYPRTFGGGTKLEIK
output: 0.000386

input: Another binder: hu5E3-IgG2 (antibody, V domains shown, human IgG2/kappa; also called humanized 5E3 IgG2) VH: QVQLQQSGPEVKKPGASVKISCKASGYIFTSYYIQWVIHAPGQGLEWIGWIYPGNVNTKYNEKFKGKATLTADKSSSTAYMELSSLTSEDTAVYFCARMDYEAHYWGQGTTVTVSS VL: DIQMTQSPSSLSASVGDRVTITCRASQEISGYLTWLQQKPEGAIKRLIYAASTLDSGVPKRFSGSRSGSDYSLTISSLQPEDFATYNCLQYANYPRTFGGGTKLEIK
output: 0.000762

input: Another binder: hu5E3-IgG4 (antibody, V domains shown, human IgG4/kappa; also called humanized 5E3 IgG4) VH: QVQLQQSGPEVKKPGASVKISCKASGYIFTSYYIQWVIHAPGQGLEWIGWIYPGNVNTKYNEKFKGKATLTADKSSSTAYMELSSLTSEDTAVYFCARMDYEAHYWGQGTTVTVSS VL: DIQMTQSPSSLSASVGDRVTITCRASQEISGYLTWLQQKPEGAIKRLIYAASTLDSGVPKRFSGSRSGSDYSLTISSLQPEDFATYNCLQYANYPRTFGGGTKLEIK
output: 0.00055

input: Another binder: murine monoclonal antibody 5E3 (antibody, V domains shown, mouse antibody of the 5E3 hybridoma; also called murine 5E3; m5E3) VH: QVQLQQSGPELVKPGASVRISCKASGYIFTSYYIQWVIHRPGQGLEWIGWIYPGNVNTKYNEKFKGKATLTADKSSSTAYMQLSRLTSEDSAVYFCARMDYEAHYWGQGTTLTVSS VL: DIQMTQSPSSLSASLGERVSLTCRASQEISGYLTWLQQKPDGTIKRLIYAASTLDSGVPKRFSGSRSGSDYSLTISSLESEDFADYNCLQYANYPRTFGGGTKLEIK
output: 0.000428
